Test system: MV-4-11 cells
EXPERIMENT_SUMMARY: Cell proliferation assay (Cell Titer-Glo), MV-4-11 cells
Type: cell-based
CONDITION_CONTEXT: Homo sapiens, MV4-11; MV411 cells, 72 h incubation
// reported EC50 per item

COMPOUND	SYSTEM_NAME	EC50
O=C(Cc1ccc2c(c1)CN(C1CCC(=O)NC1=O)C2=O)NCC1CC1 (centres unmarked)	MV-4-11 cells	> 8.2 µM

Quote MV-4-11 cells EC50 for entry COCCNC(=O)Cc1ccc2c(c1)CN(C1CCC(=O)NC1=O)C2=O (centres unmarked) .
> 6.7 µM

Look up MV-4-11 cells data: EC50 of O=C(Cc1ccc2c(c1)CN(C1CCC(=O)NC1=O)C2=O)NCc1cccc2ccccc12 (centres unmarked) , then report it.
0.005 µM

Given O=C1CCC(N2Cc3cc(CC(=O)Nc4cccc(F)c4)ccc3C2=O)C(=O)N1 (centres unmarked) , report its EC50 on MV-4-11 cells.
> 4.5 µM

Give measured EC50 for O=C1CCC(N2Cc3cc(CC(=O)N4CCCCC4)ccc3C2=O)C(=O)N1 (centres unmarked) (MV-4-11 cells).
> 8.7 µM

###

SYSTEM_NAME: hGSPT1 (Homo sapiens, UniProt P15170+Q96SW2)
Construct: host or cells: HEK293
Sequence (P15170 whole entry): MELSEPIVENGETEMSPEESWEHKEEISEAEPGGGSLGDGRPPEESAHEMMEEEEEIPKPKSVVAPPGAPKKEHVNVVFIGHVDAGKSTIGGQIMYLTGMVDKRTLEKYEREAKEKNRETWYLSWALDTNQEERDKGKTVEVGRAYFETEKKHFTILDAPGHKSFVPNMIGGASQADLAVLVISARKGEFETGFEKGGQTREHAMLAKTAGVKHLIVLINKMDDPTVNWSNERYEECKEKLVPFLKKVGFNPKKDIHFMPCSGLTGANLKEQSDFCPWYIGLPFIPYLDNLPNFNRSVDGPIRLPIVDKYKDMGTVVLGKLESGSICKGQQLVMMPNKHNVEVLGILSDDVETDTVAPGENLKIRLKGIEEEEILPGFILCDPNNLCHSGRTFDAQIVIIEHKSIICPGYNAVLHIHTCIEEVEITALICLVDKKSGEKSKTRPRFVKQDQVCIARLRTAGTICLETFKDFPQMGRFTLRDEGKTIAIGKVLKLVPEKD
Sequence (Q96SW2 whole entry): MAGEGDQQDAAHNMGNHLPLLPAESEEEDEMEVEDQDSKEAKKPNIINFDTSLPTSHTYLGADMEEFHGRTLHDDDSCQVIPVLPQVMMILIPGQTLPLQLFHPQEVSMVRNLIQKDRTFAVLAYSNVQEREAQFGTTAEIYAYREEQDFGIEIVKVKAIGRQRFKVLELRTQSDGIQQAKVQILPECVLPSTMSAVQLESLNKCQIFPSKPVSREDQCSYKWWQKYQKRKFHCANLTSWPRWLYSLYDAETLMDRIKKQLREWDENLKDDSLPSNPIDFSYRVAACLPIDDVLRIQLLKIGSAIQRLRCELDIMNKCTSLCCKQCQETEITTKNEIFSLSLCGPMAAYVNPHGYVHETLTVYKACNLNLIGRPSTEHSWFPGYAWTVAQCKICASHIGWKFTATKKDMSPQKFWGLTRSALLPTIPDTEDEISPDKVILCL
Sequence (Q16531 whole entry partner): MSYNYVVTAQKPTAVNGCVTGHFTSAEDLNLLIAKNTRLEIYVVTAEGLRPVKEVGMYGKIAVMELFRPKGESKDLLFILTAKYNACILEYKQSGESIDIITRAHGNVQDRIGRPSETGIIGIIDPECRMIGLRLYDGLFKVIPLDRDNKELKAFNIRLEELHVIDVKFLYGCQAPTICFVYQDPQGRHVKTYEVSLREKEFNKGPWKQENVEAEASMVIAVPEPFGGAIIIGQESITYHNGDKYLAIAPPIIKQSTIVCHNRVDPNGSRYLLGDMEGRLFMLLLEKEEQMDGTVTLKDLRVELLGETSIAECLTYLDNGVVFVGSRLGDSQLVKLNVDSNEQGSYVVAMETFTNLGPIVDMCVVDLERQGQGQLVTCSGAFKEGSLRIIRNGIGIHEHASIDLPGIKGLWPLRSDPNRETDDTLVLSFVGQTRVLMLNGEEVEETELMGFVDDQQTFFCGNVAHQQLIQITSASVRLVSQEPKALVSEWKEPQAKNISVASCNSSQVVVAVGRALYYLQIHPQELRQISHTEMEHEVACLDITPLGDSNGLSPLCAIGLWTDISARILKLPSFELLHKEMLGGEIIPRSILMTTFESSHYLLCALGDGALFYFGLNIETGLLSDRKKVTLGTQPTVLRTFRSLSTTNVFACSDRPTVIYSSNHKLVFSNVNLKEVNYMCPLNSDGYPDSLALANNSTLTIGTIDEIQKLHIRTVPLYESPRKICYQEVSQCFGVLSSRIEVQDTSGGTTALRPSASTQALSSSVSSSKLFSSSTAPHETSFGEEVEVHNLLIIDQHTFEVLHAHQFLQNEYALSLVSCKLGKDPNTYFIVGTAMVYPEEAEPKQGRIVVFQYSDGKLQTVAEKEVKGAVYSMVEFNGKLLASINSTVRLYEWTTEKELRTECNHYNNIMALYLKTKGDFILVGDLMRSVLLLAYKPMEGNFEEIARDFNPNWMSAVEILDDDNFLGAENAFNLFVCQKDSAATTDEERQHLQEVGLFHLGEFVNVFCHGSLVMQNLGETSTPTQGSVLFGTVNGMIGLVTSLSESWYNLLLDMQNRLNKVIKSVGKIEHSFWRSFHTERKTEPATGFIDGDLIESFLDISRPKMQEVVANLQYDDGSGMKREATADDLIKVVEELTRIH
EXPERIMENT_SUMMARY: hGSPT1 HiBiT assay (level of GSPT1 HiBiT tag protein, Nano-Glo HiBiT Lytic Detection)
Type: cell-based
CONDITION_CONTEXT: HEK293 hGSPT1 HiBiT tag cells, 4 hrs incubation
Reported DC50 is given for each of the following compounds.

# count of solved cases: 3
COMPOUND	DC50
O=C(Cc1ccc2c(c1)CN(C1CCC(=O)NC1=O)C2=O)NCc1ccccc1 (stereo not shown) [Compound 1]	< 1 nM
Cc1ccccc1NC(=O)Cc1ccc2c(c1)CN(C1CCC(=O)NC1=O)C2=O (stereo not shown) [Compound 18]	> 5970 nM
O=C1CCC(N2Cc3cc(CC(=O)Nc4ccc(N5CCCCC5)cc4)ccc3C2=O)C(=O)N1 (stereo not shown) [Compound 23]	< 1 nM

Query DC50 for O=C1CCC(N2Cc3cc(CC(=O)N4CCOCC4)ccc3C2=O)C(=O)N1 (stereo not shown) [Compound 14]
> 2700 nM

###

Tested on: MV-4-11 cells
EXPERIMENT_SUMMARY: Cell proliferation assay (Cell Titer-Glo), MV-4-11 cells
Type: cell-based
CONDITION_CONTEXT: Homo sapiens, MV4-11; MV411 cells, 72 h incubation
pEC50: −log10 of the molar value.
MEASURED_METRIC: pEC50

COMPOUND	pEC50
COc1cccc(NC(=O)Cc2ccc3c(c2)CN(C2CCC(=O)NC2=O)C3=O)c1 (centres unmarked) [Compound 19]	8.30

[1] O=C(Cc1ccc2c(c1)CN(C1CCC(=O)NC1=O)C2=O)NCc1ccc(F)cc1 (centres unmarked) [Compound 9]
[2] O=C1CCC(N2Cc3cc(CC(=O)Nc4cccc(Cl)c4)ccc3C2=O)C(=O)N1 (centres unmarked) [Compound 20]
[3] O=C1CCC(N2Cc3cc(CC(=O)Nc4ccccc4)ccc3C2=O)C(=O)N1 (centres unmarked) [Compound 17]
Order by pEC50, ascending. Provide your answer as the labels ordered per the instruction.
3, 2, 1
(3: 6.13, 2: 8.30, 1: 8.52)

###

Test system: MV-4-11 cells
EXPERIMENT_SUMMARY: Cell proliferation assay (Cell Titer-Glo), MV-4-11 cells
Assay type: cell-based
CONDITION_CONTEXT: Homo sapiens, MV4-11; MV411 cells, 72 h incubation
MEASURED_METRIC: EC50

MOLECULE	SYSTEM_NAME	EXPERIMENTAL_VALUE
O=C(Cc1ccc2c(c1)CN(C1CCC(=O)NC1=O)C2=O)NCc1ccccc1 (centres unmarked) [Compound 1]	MV-4-11 cells	< 0.001 µM
COc1ccc(NC(=O)Cc2ccc3c(c2)CN(C2CCC(=O)NC2=O)C3=O)cc1 (centres unmarked) [Compound 13]	MV-4-11 cells	< 0.001 µM
CCN(CC)C(=O)Cc1ccc2c(c1)CN(C1CCC(=O)NC1=O)C2=O (centres unmarked) [Compound 5]	MV-4-11 cells	> 1.73 µM
O=C1CCC(N2Cc3cc(CC(=O)Nc4ccc(N5CCCCC5)cc4)ccc3C2=O)C(=O)N1 (centres unmarked) [Compound 23]	MV-4-11 cells	0.002 µM
Cc1ccccc1NC(=O)Cc1ccc2c(c1)CN(C1CCC(=O)NC1=O)C2=O (centres unmarked) [Compound 18]	MV-4-11 cells	> 4.9 µM

Provide only the value of recorded EC50 for CC(C)NC(=O)Cc1ccc2c(c1)CN(C1CCC(=O)NC1=O)C2=O (centres unmarked) [Compound 6]
> 6.9 µM

Report measured EC50; entry is O=C1CCC(N2Cc3cc(CC(=O)NC4CCCCC4)ccc3C2=O)C(=O)N1 (centres unmarked) [Compound 2]
> 5.8 µM

Dear colleague, please send me the reported EC50 for CCN(C(=O)Cc1ccc2c(c1)CN(C1CCC(=O)NC1=O)C2=O)c1ccccc1 (centres unmarked) [Compound 3] when you can.
> 8.7 µM

###

SYSTEM_NAME: hGSPT1 (Homo sapiens, UniProt P15170+Q96SW2)
Construct: host or cells: HEK293
EXPERIMENT_SUMMARY: hGSPT1 HiBiT assay (level of GSPT1 HiBiT tag protein, Nano-Glo HiBiT Lytic Detection)
Assay type: cell-based
CONDITION_CONTEXT: HEK293 hGSPT1 HiBiT tag cells, 4 hrs incubation
MEASURED_METRIC: DC50

Solved cases (3 shown):
COMPOUND	SYSTEM_NAME	MEASURED_METRIC	EXPERIMENTAL_VALUE
O=C1CCC(N2Cc3cc(CC(=O)Nc4cccc(OCc5ccccc5)c4)ccc3C2=O)C(=O)N1 (stereo not shown)	hGSPT1 (Homo sapiens, UniProt P15170+Q96SW2)	DC50	< 1 nM
O=C1CCC(N2Cc3cc(CC(=O)Nc4cccc(F)c4)ccc3C2=O)C(=O)N1 (stereo not shown)	hGSPT1 (Homo sapiens, UniProt P15170+Q96SW2)	DC50	> 3110 nM
Cc1ccc(CNC(=O)Cc2ccc3c(c2)CN(C2CCC(=O)NC2=O)C3=O)cc1 (stereo not shown)	hGSPT1 (Homo sapiens, UniProt P15170+Q96SW2)	DC50	< 1 nM

# next compound below
Check the records and state DC50 for O=C1CCC(N2Cc3cc(CC(=O)NC4CCCCC4)ccc3C2=O)C(=O)N1 (stereo not shown)
> 7100 nM

###

Let's look at some molecules and their measured pEC50.
Tested on: MV-4-11 cells
EXPERIMENT_SUMMARY: Cell proliferation assay (Cell Titer-Glo), MV-4-11 cells
Assay type: cell-based
CONDITION_CONTEXT: Homo sapiens, MV4-11; MV411 cells, 72 h incubation
Method: […] Compounds were screened in human cancer cell lines and each cell line was cultured in the complete medium recommended by the vendor and seeded in Corning 8804BC white 384-well assay plates at density of 1250 cells per well for MV-4-11 cells and of 7,500 cells per well for MHH-CALL-4 cells. […] After 72 h incubation, cell proliferation was assessed using Cell Titer-Gbo (CTG) luminescent cell viability assay (Promega) according to the manufacturer's instruction. […]
pEC50: −log10 of the molar value.

# count of solved cases: 2
MOLECULE	EXPERIMENTAL_VALUE
Cc1ccc(CNC(=O)Cc2ccc3c(c2)CN(C2CCC(=O)NC2=O)C3=O)cc1 (stereo not shown) [Compound 8]	> 9.00
O=C1CCC(N2Cc3cc(CC(=O)N4CCOCC4)ccc3C2=O)C(=O)N1 (stereo not shown) [Compound 14]	< 5.66

Would you please give the reported pEC50 of O=C(Cc1ccc2c(c1)CN(C1CCC(=O)NC1=O)C2=O)NCc1cccc(C(F)(F)F)c1 (stereo not shown) [Compound 10] with MV-4-11 cells?
> 9.00

Retrieve pEC50 on MV-4-11 cells; query O=C1CCC(N2Cc3cc(CC(=O)Nc4cccc(OCc5ccccc5)c4)ccc3C2=O)C(=O)N1 (stereo not shown) [Compound 22]
> 9.00
